Origin of measurements: the Immune Epitope Database (IEDB)

Target: HLA-A*02:01
Assay: IEDB peptide-MHC binding, purified MHC/direct/fluorescence; filed as Kd, often an IC50 or EC50 that approximates it; bounds were set here for any values at or beyond the usual limits of such assays
Settings: source organism: Escherichia coli O157:H7
pKd: −log10 of the molar value.
READOUT_TYPE: pKd

LQLTAVFAY: ≤ 4.70
LDKGKLWHL: ≤ 4.70

Next up:
I would be grateful if you could share the reported pKd for `KTTIKFHPW` .
≤ 4.70

###

Below: a set of entries, each annotated with reported pKd.
Target: HLA-B*53:01
Assay: IEDB peptide-MHC binding, purified MHC/competitive/radioactivity; filed as Kd, often an IC50 or EC50 that approximates it; bounds were set here for any values at or beyond the usual limits of such assays
Conditions: source organism: Dengue virus 2 Jamaica/1409/1983
By convention, pKd is the negative base-10 log of a molar concentration.

Some sequences with recorded pKd:
MAILGDTAW: 8.01
ITAAAWYLW: 6.76
FITDNVHTW: 7.05
FGVFTTNIW: 6.95

Now for a further sequence.
Give recorded pKd with HLA-B*53:01 for the following sequence: `NPTVDGITVI`
5.60
